Test: Spectral properties of rhodamine bis-boronic acids and precursors in DMSO:buffer
Type: physicochemical
Parameters: scale not given here
Conditions: DMSO:buffer 1:1
Quantity kind: Brightness
One number for each entry.

{"columns": ["Compound", "Quantity kind", "Data value"],
 "data": [
  ["O=C(O)c1ccccc1-c1c2ccc(=NCc3ccccc3B(O)O)cc-2oc2c1ccc1cc(NCc3ccccc3B(O)O)ccc12 [Compound 51, seminaphthorhodamine bis-boronic acid]", "Brightness", 8037]
]}

Shift focus to the following entry.
Field request: Brightness | item: N=c1ccc2c(-c3ccccc3C(=O)O)c3ccc4cc(N)ccc4c3oc-2c1 [Compound 50, seminaphthorhodamine]
6298

* * *

Assay: Spectral properties of rhodamine bis-boronic acids and precursors in DMSO:buffer
Format: physicochemical
Set-up: scale not given here
Conditions: DMSO:buffer 1:9
Marks after values point to notes of the source that are not given here.
Give measured Brightness for each item. Keep answers brief.

{"columns": ["Smiles structure", "Data value"],
 "data": [
  ["O=C(O)c1ccccc1-c1c2ccc3cc(NCc4ccccc4B(O)O)ccc3c2oc2c1ccc1cc(=NCc3ccccc3B(O)O)ccc12", "43^d,f"]
]}

Please give Brightness, item by item, for the list that follows.
1. O=C(O)c1ccccc1-c1c2ccc(=NCc3ccccc3B(O)O)cc-2oc2c1ccc1cc(NCc3ccccc3B(O)O)ccc12
2. N=c1ccc2c(ccc3c(-c4ccccc4C(=O)O)c4ccc5cc(N)ccc5c4oc32)c1
3. N=c1ccc2c(-c3ccccc3C(=O)O)c3ccc4cc(N)ccc4c3oc-2c1

1. 3032^e
2. 1144^d
3. 8083
